For each entry below, report its IC50 value.
- TESTED TARGET: Recombinant human FAP (Homo sapiens)
- Construct: purchased R&D systems 3715-SE
- Sequence (Q12884 26-760 limits assumed): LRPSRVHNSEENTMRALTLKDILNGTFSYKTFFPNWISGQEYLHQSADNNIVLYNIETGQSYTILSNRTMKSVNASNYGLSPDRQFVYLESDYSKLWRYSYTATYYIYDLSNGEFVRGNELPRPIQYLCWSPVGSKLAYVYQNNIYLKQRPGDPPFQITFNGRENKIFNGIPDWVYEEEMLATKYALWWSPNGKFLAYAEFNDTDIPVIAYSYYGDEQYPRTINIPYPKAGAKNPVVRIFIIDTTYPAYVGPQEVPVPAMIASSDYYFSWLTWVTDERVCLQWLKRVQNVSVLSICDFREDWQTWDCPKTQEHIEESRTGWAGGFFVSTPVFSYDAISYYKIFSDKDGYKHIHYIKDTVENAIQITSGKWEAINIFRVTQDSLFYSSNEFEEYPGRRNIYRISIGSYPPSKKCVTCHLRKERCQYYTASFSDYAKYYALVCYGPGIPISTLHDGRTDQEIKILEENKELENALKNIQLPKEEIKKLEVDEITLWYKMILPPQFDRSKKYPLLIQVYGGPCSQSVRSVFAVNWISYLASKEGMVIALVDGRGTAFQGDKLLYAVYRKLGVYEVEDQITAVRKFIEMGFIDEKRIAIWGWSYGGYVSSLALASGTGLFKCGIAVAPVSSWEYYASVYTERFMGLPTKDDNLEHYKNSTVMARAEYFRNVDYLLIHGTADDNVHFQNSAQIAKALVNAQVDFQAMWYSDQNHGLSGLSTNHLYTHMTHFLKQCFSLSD
- PROCEDURE TEXT: FRET-based FAP protease activity assay
- Format: biochemical
- CONDITION NOTES: recombinant human FAP, FRET-peptide substrate, 37° C.; read-out: pIC50 Category (Activity) (converted)
*1 amine or outer side, *2 acyl side, *3 side chain or, on linkers, in order; H or OH if unused. Where a SMILES comes first, the peptide text is derived from it. Bridges are numbered along the chain shown (N, C = ends). [ ]: non-standard residue; d: D form. The star is where a group is joined. X4 = O=C(O)CN1CCN(CC(=O)O)CCN(CC(=O)NCCCOCCOCCOCCCN*)CCN(CC(=O)O)CC1; Suc = O=C(CCC(=O)[*:2])[*:1]; 4Amb = NCc1ccc(C(=O)O)cc1; Nle = CCCC[C@H](N)C(=O)O

Req: IC50 for CCCC[C@H](NC(=O)CCC(=O)NCCCOCCOCCOCCCNC(=O)CN1CCN(CC(=O)O)CCN(CC(=O)O)CCN(CC(=O)O)CC1)C(=O)N[C@H]1CSC2=C(SC[C@@H](C(=O)N[C@@H](CC(=O)O)C(N)=O)NC(=O)[C@H](Cc3ccccc3)CC(=O)[C@H](CCC(N)=O)NC(=O)[C@H]([C@@H](C)O)NC(=O)[C@@H]3CCCN3C(=O)[C@@H]3CCCN3C1=O)C(=O)NC2=O ?
Resp: < 100 nM

Req: Similarly, CCCC[C@H](NC(=O)CCC(=O)NCCCOCCOCCOCCCNC(=O)CN1CCN(CC(=O)O)CCN(CC(=O)O)CCN(CC(=O)O)CC1)C(=O)N[C@H]1CSSC[C@@H](C(=O)N[C@@H](CC(=O)O)C(=O)NCc2ccc(C(=O)N[C@@H](CCCNC(=N)N)C(N)=O)cc2)NC(=O)[C@H](Cc2ccccc2)NC(=O)[C@H](CCC(=O)O)NC(=O)[C@H]([C@@H](C)O)NC(=O)[C@@H]2CCCN2C(=O)[C@@H]2CCCN2C1=O [Compound 1007] ({X4-Suc}-[Nle]CPPTEFCD[4Amb]R-NH2; disulfide 2-8) ?
Resp: < 100 nM

All figures here come from patent US20240115745A1.
